Hello, the source for this data is patent US20110243924A1, in case you need it.

assay-remarks: In vitro stability in human plasma
Type: in vitro ADME
condition-details: human plasma (lithium heparin), 36° C.
attribute-measured: half-life at 5 μg/ml

smiles_structure=O=C(O[C@H]1C[N+]2(CCCOc3ccccc3)CCC1CC2)C(O)(c1cccs1)c1cccs1 measurement="< 5 min"
